Biological target: P70S6K (T412E mutant, Millipore) (Homo sapiens, UniProt P23443, T412E)
Construct: purchased Millipore
Sequence (P23443 whole entry T412E): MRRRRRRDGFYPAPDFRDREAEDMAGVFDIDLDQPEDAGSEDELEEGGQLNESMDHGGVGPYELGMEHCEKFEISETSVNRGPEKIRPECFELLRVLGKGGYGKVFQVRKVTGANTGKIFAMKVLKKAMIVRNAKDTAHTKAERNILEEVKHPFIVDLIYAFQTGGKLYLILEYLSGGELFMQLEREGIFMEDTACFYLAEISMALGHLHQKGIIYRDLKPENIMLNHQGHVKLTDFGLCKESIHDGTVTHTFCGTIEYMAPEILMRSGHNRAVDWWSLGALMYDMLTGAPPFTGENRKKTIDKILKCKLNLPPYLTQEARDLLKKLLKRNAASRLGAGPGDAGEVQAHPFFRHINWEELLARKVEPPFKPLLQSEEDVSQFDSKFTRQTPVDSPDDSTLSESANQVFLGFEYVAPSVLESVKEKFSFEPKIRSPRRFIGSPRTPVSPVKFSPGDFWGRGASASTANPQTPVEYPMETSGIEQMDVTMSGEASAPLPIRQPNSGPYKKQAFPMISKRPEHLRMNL
Assay: p70S6K enzyme assay
Assay type: biochemical
Settings: class symbol; 3 nM P70S6K, 24 μM ATP; read-out: IC50 (p70S6K)
Readout: IC50

CC(C)(C)OC(=O)N1CCC[C@@H]1CNC(=O)c1sccc1Nc1ccnc2[nH]ccc12 [Example 92]    100 to 1000 nM
O=C(N[C@H](CO)c1ccccc1)c1ccsc1Nc1ccnc2[nH]ccc12 [Example 75]    < 100 nM
CNCC(NC(=O)c1sccc1Nc1ccnc2[nH]ccc12)c1cccc(F)c1 (stereo not drawn) [Example 167]    < 100 nM
O=C(NC(CO)C(=O)NCc1ccccc1)c1sccc1Nc1ccnc2[nH]ccc12 (stereo not drawn) [Example 88]    100 to 1000 nM
NCCNC(=O)c1sccc1Nc1ccnc2[nH]ccc12 [Example 42]    < 100 nM
O=C(CNC(=O)c1sccc1Nc1ccnc2[nH]ccc12)NCc1ccccc1 [Example 73]    100 to 1000 nM
O=C(NCCNCc1ccc(F)c(Cl)c1)c1sccc1Nc1ccnc2[nH]ccc12 [Example 63]    < 100 nM
O=C(NCC1CCCO1)c1sccc1Nc1ccnc2[nH]ccc12 (stereo not drawn) [Example 3]    100 to 1000 nM

[in] // fetch IC50 given entry NCC(NC(=O)c1sccc1Nc1ccnc2[nH]ccc12)c1ccccc1 (stereo not drawn) [Example 77]
[out] < 100 nM

[in] // fetch IC50 given entry COc1ccccc1C(CN)NC(=O)c1ccsc1Nc1ccnc2[nH]ccc12 (stereo not drawn) [Example 109]
[out] < 100 nM

[in] // fetch IC50 given entry O=C(NCCNCc1ccc2[nH]ccc2c1)c1sccc1Nc1ccnc2[nH]ccc12 [Example 59]
[out] < 100 nM

[in] // fetch IC50 given entry O=C(N[C@@H](CO)Cc1ccccc1)c1sccc1Nc1ccnc2[nH]ccc12 [Example 81]
[out] 1000 to 10000 nM

[in] // fetch IC50 given entry O=C(c1sccc1Nc1ccnc2[nH]ccc12)N1CCC(NCc2ccccc2)CC1 [Example 65]
[out] 1000 to 10000 nM

[in] // fetch IC50 given entry Cc1ccccc1CCNC(=O)c1sccc1Nc1ncnc2[nH]ccc12 [Example 181]
[out] < 100 nM

[in] // fetch IC50 given entry O=C(NCCNCc1ccncc1)c1sccc1Nc1ccnc2[nH]ccc12 [Example 74]
[out] 100 to 1000 nM

[in] // fetch IC50 given entry CC(C)(C)OC(=O)N1CCCC(NC(=O)c2sccc2Nc2ncnc3[nH]ccc23)C1 (stereo not drawn) [Example 184]
[out] 100 to 1000 nM

[in] // fetch IC50 given entry CN(C)c1cc(C(=O)Nc2cccc(CNC(=O)c3sccc3Nc3ccnc4[nH]ccc34)c2)ccn1 [Example 162]
[out] < 100 nM

[in] // fetch IC50 given entry COc1cccc(C(CN(C)C)NC(=O)c2sccc2Nc2ccnc3[nH]ccc23)c1 (stereo not drawn) [Example 160]
[out] < 100 nM
